# selectivity ratio listing for each entry below
# METHOD_NOTES: Selectivity index, ratio of ED50 for human KB cells to ED50 for chloroquine-resistant Plasmodium falciparum W2
# Format: toxicity, cell-based
# STUDY_CONDITIONS: read-out: Selectivity Index

# example entries with known answers
>>> measured_result("COc1cc2c(c(O)c1OC)CCN(C)[C@H]2Cc1ccc(Oc2c3c(cc(OC)c2OC)-c2c(OC)c(OC)c(O)c4c2[C@H](C3)N(C)CC4)cc1")
93
>>> measured_result("C=C[C@H]1CN2CC[C@H]1C[C@H]2[C@H](O)c1ccnc2ccc(OC)cc12")
"> 340"
>>> measured_result("OC(c1cc(C(F)(F)F)nc2c(C(F)(F)F)cccc12)C1CCCCN1 (stereo unspecified)")
1840
>>> measured_result("C[C@@H]1CC[C@H]2[C@@H](C)C(=O)O[C@@H]3O[C@@]4(C)CC[C@@H]1[C@]32OO4")
"> 50000"
>>> measured_result("COc1cc2c(cc1O)CCN(C)[C@H]2Cc1ccc(Oc2c(O)c(OC)cc3c2C[C@H]2c4c(c(OC)c(OC)c(OC)c4-3)CCN2C)cc1")
47

Okay, now this compound:
Consider the compound shown here: "COc1cc2c(cc1OC)[C@H](Cc1ccc(Oc3c4c(cc(OC)c3OC)-c3c(OC)c(OC)c(OC)c5c3[C@H](C4)N(C)CC5)cc1)N(C)CC2" What is its recorded selectivity ratio?
35
